So I've got a bunch of molecules here, and I need their viability, T/C values.
system: 377384-186-R-J1-PDC complex spheroid viability; assay: Anticancer human tumor 377384-186-R-J1-PDC patient-derived pancreatic carcinoma cell line growth inhibition [RAS]; conditions: second compound 0.0949 µM; first compound 0.316 µM; stronger effect = lower value;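 further: spheroids exposed to compounds for seven days before readout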
Give just the numeric value; % need not be written.

Write down the reported viability, T/C of C=CC(=O)Nc1cc(Nc2nccc(-c3cn(C)c4ccccc34)n2)c(OC)cc1N(C)CCN(C)C + CCn1c(-c2cccnc2C(C)OC)c2c3cc(ccc31)N1CCOC(CC(NC(=O)C(C(C)C)N(C)C(=O)C3(F)CCN(C(=O)C#CC(C)(C)N(C)C)CC3)C(=O)N3CCCC(N3)C(=O)OCC(C)(C)C2)C1 , test system: 377384-186-R-J1-PDC complex spheroid viability.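 Further: spheroids exposed to compounds for seven days before readout.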
66

Item: C=CC(=O)N1CCN(c2nc(OCC3CCCN3C)nc3c(F)c(-c4nc(N)cc(C)c4C(F)(F)F)c(Cl)cc23)C(C)C1 (configuration not stated) + CCn1c(-c2cccnc2C(C)OC)c2c3cc(ccc31)N1CCOC(CC(NC(=O)C(C(C)C)N(C)C(=O)C3(F)CCN(C(=O)C#CC(C)(C)N(C)C)CC3)C(=O)N3CCCC(N3)C(=O)OCC(C)(C)C2)C1
101
